Let's look at some compounds and their measured kinase still bound, per cent of control.
system: MYLK4 (human)
experiment notes: KINOMEscan competition binding
recorded conditions: compound 10.0 µM
Answer in %, number only, no unit symbol.

COc1ccc(N(C(=O)Oc2cc(C(=O)Nc3cccc(C(F)(F)F)c3)ccc2C)c2ccnc(Nc3ccc(N4CCN(C)CC4)cc3)n2)c(OC)c1
100

Quick one: kinase still bound, per cent of control for N#C/C(=C1/Nc2ccccc2S1)c1ccnc(NCCc2cccnc2)n1 ?
16

Which kinase still bound, per cent of control is listed for COc1cc2c(Nc3ccc(NC(=O)c4ccccc4)cc3)ncnc2cc1OCCCN1CCOCC1 ?
100

Which kinase still bound, per cent of control is listed for CCc1nc(-c2cccc(C)c2)c(-c2ccnc(NC(=O)c3ccccc3)c2)s1 ?
100

Consider the compound shown here: CC(=O)c1c(C)c2cnc(Nc3ccc(N4CCNCC4)cn3)nc2n(C2CCCC2)c1=O What is its recorded kinase still bound, per cent of control?
35

Recorded kinase still bound, per cent of control of CCCS(=O)(=O)Nc1ccc(F)c(C(=O)c2c[nH]c3ncc(Cl)cc23)c1F , please.
15

Please give the measured kinase still bound, per cent of control for this compound: Cc1cn(-c2cc(C(=O)Nc3ccc(C)c(NC(=O)c4ccno4)c3)cc(C(F)(F)F)c2)cn1
100

Returns the measured kinase still bound, per cent of control for the input compound. Input: C=CC(=O)Nc1ccc(C(=O)c2sc(Nc3ccc(N4CCN(C)CC4)cc3OC)nc2N)cc1
66

// query kinase still bound, per cent of control value for entry COc1cc2ncnc(Nc3cccc(Cl)c3)c2cc1OC
78

* * *

system: IRAK3 (human) (UniProt Q9Y616)
Sequence (Q9Y616 whole entry, looked up): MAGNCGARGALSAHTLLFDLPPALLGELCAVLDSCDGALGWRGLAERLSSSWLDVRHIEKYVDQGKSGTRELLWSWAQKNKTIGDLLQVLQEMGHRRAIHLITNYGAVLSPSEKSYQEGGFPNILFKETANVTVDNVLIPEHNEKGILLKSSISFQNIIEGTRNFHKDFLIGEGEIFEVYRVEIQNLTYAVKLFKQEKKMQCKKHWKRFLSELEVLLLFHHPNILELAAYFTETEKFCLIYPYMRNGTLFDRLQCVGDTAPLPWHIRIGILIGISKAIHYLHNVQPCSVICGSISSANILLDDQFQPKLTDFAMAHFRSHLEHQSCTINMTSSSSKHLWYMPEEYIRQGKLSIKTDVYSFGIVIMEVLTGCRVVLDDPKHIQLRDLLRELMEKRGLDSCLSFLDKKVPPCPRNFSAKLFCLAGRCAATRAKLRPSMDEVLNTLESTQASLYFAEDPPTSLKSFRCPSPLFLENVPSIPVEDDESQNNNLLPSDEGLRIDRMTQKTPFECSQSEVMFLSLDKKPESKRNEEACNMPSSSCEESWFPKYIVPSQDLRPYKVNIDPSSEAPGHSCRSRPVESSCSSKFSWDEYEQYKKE
experiment notes: KINOMEscan competition binding
recorded conditions: compound 10.0 µM
value type: kinase still bound, per cent of control
Don't forget the unit after the value.

The following compounds have reported results that may help.
CCCS(=O)(=O)Nc1ccc(F)c(C(=O)c2c[nH]c3ncc(Cl)cc23)c1F
26%
N#C/C(=C1/Nc2ccccc2S1)c1ccnc(NCCc2cccnc2)n1
38%
CC1=C(C(=O)Nc2cc3cn[nH]c3cc2F)C(c2ccc(C(F)(F)F)cc2)CC(=O)N1 (stereo not drawn)
85%
COc1ccc(N(C(=O)Oc2cc(C(=O)Nc3cccc(C(F)(F)F)c3)ccc2C)c2ccnc(Nc3ccc(N4CCN(C)CC4)cc3)n2)c(OC)c1
100%
CNC(=O)Nc1ccc(-c2nc(N3CC4CCC(C3)O4)c3cnn(C4CCC5(CC4)OCCO5)c3n2)cc1
100%
CC(=O)c1c(C)c2cnc(Nc3ccc(N4CCNCC4)cn3)nc2n(C2CCCC2)c1=O
36%
COc1cc(N2CCC(C(N)=O)CC2)ccc1Nc1nc(N)c(Cl)c(Nc2ccccc2S(=O)(=O)C(C)C)n1
29%
Cc1cn(-c2cc(C(=O)Nc3ccc(C)c(NC(=O)c4ccno4)c3)cc(C(F)(F)F)c2)cn1
100%
COc1cc2ncnc(Nc3cccc(Cl)c3)c2cc1OC
30%
N#Cc1cc(-c2ccnc(Nc3ccc(-n4cnc(-c5cccnc5)n4)cc3)n2)cc(N2CCOCC2)c1
12%

# get_value(readout='kinase still bound, per cent of control', item= O=c1[nH]c2ccccc2n1C1CCN(Cc2ccc(-c3nc4cc5[nH]cnc5cc4nc3-c3ccccc3)cc2)CC1 )
100%

// lookup kinase still bound, per cent of control for CCOc1cc(N2CCC(O)CC2)ccc1Nc1ncc2c(n1)N(C)c1ccccc1C(=O)N2C
100%

Bench note: what kinase still bound, per cent of control did COc1cc(C)c(Sc2cnc(NC(=O)c3ccc(CNC(C)C(C)C)cc3)s2)cc1C(=O)N1CCN(C(C)=O)CC1 (stereo not drawn) show?
100%

* * *

system: GSK3A (human) (UniProt P49840)
Sequence (P49840 whole entry, looked up): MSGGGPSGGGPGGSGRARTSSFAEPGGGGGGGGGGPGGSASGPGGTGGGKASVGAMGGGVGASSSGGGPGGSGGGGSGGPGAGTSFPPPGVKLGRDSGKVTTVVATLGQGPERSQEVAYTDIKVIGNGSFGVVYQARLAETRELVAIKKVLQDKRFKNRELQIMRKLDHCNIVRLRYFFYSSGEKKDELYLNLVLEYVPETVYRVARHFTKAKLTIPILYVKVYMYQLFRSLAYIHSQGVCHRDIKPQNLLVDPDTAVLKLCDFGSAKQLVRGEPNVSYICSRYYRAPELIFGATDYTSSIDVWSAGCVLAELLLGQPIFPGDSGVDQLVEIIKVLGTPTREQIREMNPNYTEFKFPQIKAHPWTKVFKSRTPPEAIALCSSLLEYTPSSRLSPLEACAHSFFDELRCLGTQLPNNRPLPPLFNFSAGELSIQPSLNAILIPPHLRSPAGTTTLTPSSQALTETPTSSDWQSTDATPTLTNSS
experiment notes: KINOMEscan competition binding
recorded conditions: compound 10.0 µM
value type: kinase still bound, per cent of control (%)
Unit % implied. Number only.

Previously resolved entries follow.
COc1cc(N2CCC(C(N)=O)CC2)ccc1Nc1nc(N)c(Cl)c(Nc2ccccc2S(=O)(=O)C(C)C)n1
100
COc1cc(C)c(Sc2cnc(NC(=O)c3ccc(CNC(C)C(C)C)cc3)s2)cc1C(=O)N1CCN(C(C)=O)CC1 (centres undefined)
100
N#Cc1cc(-c2ccnc(Nc3ccc(-n4cnc(-c5cccnc5)n4)cc3)n2)cc(N2CCOCC2)c1
3.5

Form field: reported kinase still bound, per cent of control of CC1=C(C(=O)Nc2cc3cn[nH]c3cc2F)C(c2ccc(C(F)(F)F)cc2)CC(=O)N1 (centres undefined)
100

* * *

Each entry below lists one item and its recorded kinase still bound, per cent of control value.
System: MET (human), P08581 [M1250T]
experiment notes: KINOMEscan competition binding
recorded conditions: compound 10.0 µM
Lab book: enter the figure in %, no units written.

OCCCNc1cc(-c2ccnc(Nc3cccc(Cl)c3)n2)ccn1
100

Tell me the measured kinase still bound, per cent of control of CCCS(=O)(=O)Nc1ccc(F)c(C(=O)c2c[nH]c3ncc(-c4ccc(Cl)cc4)cc23)c1F , please.
25

Record request: kinase still bound, per cent of control value, item O=C(NOC[C@H](O)CO)c1ccc(F)c(F)c1Nc1ccc(I)cc1F
92

I am curious: what kinase still bound, per cent of control value has been reported for CCOc1cc(N2CCC(O)CC2)ccc1Nc1ncc2c(n1)N(C)c1ccccc1C(=O)N2C ?
100

Value lookup for kinase still bound, per cent of control; key = Cc1cc([C@@H](C)Nc2ccccc2C(=O)O)c2nc(N3CCOCC3)cc(=O)n2c1
87

Form field: reported kinase still bound, per cent of control of Nc1ccc(-c2ccc3ncc4ccc(=O)n(-c5cccc(C(F)(F)F)c5)c4c3c2)cn1
100

Report kinase still bound, per cent of control for CCCS(=O)(=O)Nc1ccc(F)c(C(=O)c2c[nH]c3ncc(Cl)cc23)c1F please.
78

Which kinase still bound, per cent of control is listed for O=C(Nc1cccc(Nc2ncc(Br)c(NCCc3cnc[nH]3)n2)c1)N1CCCC1 ?
4.6

Entry C=CC(=O)Nc1cccc(Nc2nc(N[C@H]3CC[C@H](N(C)C)CC3)nc3c2ncn3C(C)C)c1 has what kinase still bound, per cent of control?
100

Consider the molecule shown here: CN(C)C/C=C/C(=O)Nc1ccc(C(=O)Nc2cccc(Nc3nccc(-c4cccnc4)n3)c2)cc1 What is its recorded kinase still bound, per cent of control?
100

What measured kinase still bound, per cent of control goes with COc1cc2ncnc(Nc3cccc(Cl)c3)c2cc1OC ?
94

Value lookup for kinase still bound, per cent of control; key = N#C/C(=C1/Nc2ccccc2S1)c1ccnc(NCCc2cccnc2)n1
100

# get_value(readout='kinase still bound, per cent of control', item= COc1cc2ncnc(-n3nc(-c4ccccn4)nc3N)c2cc1OC )
44

Consider the molecule shown here: COCC(=O)NC/C=C/c1ccc2ncnc(Nc3ccc(Oc4ccc(C)nc4)c(C)c3)c2c1 What is its recorded kinase still bound, per cent of control?
100

* * *

system: NTRK2 (human)
experiment notes: KINOMEscan competition binding
recorded conditions: compound 10.0 µM
value type: kinase still bound, per cent of control (%)
Provide the reading as a plain figure in %.

Answered cases to consult:
C=CC(=O)Nc1ccc(C(=O)c2sc(Nc3ccc(N4CCN(C)CC4)cc3OC)nc2N)cc1
100
CNC(=O)Nc1ccc(-c2nc(N3CC4CCC(C3)O4)c3cnn(C4CCC5(CC4)OCCO5)c3n2)cc1
100
CCCS(=O)(=O)Nc1ccc(F)c(C(=O)c2c[nH]c3ncc(Cl)cc23)c1F
82
CC1=C(C(=O)Nc2cc3cn[nH]c3cc2F)C(c2ccc(C(F)(F)F)cc2)CC(=O)N1 (stereo not drawn)
76
CCOc1cc(N2CCC(O)CC2)ccc1Nc1ncc2c(n1)N(C)c1ccccc1C(=O)N2C
100

Look up kinase still bound, per cent of control for this compound: N#Cc1cc(-c2ccnc(Nc3ccc(-n4cnc(-c5cccnc5)n4)cc3)n2)cc(N2CCOCC2)c1
100

Which kinase still bound, per cent of control value belongs to O=c1[nH]c2ccccc2n1C1CCN(Cc2ccc(-c3nc4cc5[nH]cnc5cc4nc3-c3ccccc3)cc2)CC1 ?
85

May I ask what kinase still bound, per cent of control has been recorded for COc1ccc(N(C(=O)Oc2cc(C(=O)Nc3cccc(C(F)(F)F)c3)ccc2C)c2ccnc(Nc3ccc(N4CCN(C)CC4)cc3)n2)c(OC)c1 ?
24

Quick one: kinase still bound, per cent of control for CCN(CCO)CCCOc1ccc2c(Nc3cc(CC(=O)Nc4cccc(F)c4)[nH]n3)ncnc2c1 ?
8.2

Quick one: kinase still bound, per cent of control of N#C/C(=C1/Nc2ccccc2S1)c1ccnc(NCCc2cccnc2)n1 ?
56

Would you mind telling me what kinase still bound, per cent of control value was observed for COc1cc(N2CCC(C(N)=O)CC2)ccc1Nc1nc(N)c(Cl)c(Nc2ccccc2S(=O)(=O)C(C)C)n1 ?
100

I would be grateful if you could share the reported kinase still bound, per cent of control for COc1cc2ncnc(Nc3cccc(Cl)c3)c2cc1OC .
80

Recorded kinase still bound, per cent of control of Cc1cn(-c2cc(C(=O)Nc3ccc(C)c(NC(=O)c4ccno4)c3)cc(C(F)(F)F)c2)cn1 , please.
100

I'd like to know its kinase still bound, per cent of control. The compound in question is CCN1CCN(Cc2ccc(NC(=O)c3ccc(C)c(/C=C/c4cnc5[nH]ccc5c4OC)c3)cc2C(F)(F)F)CC1
5.2

What value of measured kinase still bound, per cent of control is listed for CC(=O)c1c(C)c2cnc(Nc3ccc(N4CCNCC4)cn3)nc2n(C2CCCC2)c1=O ?
12

Which measured kinase still bound, per cent of control value corresponds to CCc1nc(-c2cccc(C)c2)c(-c2ccnc(NC(=O)c3ccccc3)c2)s1 ?
100

Given COc1cc(C)c(Sc2cnc(NC(=O)c3ccc(CNC(C)C(C)C)cc3)s2)cc1C(=O)N1CCN(C(C)=O)CC1 (stereo not drawn) , state its recorded kinase still bound, per cent of control.
23

Can you share its kinase still bound, per cent of control? I mean this compound: COc1cc2c(Nc3ccc(NC(=O)c4ccccc4)cc3)ncnc2cc1OCCCN1CCOCC1
17

The measurements presented in this section are drawn from the kinase profiling compilation of Christmann-Franck et al. (2016).
